Values compiled from paper PMC12412652.

# Target system: T1, BCL-B (Homo sapiens)
# T1 chain: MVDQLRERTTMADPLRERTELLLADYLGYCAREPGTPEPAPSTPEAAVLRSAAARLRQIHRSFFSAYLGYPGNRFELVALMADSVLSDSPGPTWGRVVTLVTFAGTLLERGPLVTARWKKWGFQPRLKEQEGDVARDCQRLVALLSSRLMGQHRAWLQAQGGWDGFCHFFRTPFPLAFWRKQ
# Test description: BLI
pKd: −log10 of the molar value.
Where pKd equals or exceeds 6, the correct label is Satisfied; where it does not, the label is Not satisfied.

These solved cases illustrate the format of a correct answer.
[
  {
    "Binder": "αBAK1 (designed binder, biotinylated for BLI (Avi tag). Limits not given; the soluble form lacking the transmembrane segment (183-200) is taken by convention) GADPKKVLDKAKDQMENVVRKLKQILEELAKEARKLDLTQDEKIELILRYIVAHLAAIGDIEEAIREAKEEADKLKKAGLVNSQQLDEFKRRLEELHKEADRKRRDYAEEFRNKLEYG",
    "Label value": "Not satisfied"
  },
  {
    "Binder": "αBAX2 (designed binder, biotinylated for BLI (Avi tag). Limits not given; the soluble form lacking the transmembrane segment (183-200) is taken by convention) GADPKKVLDKARDQAENRVRELRQKLTELYKEARKLDLTQEERRKLIKRYKAAMNEAIKDIHEAIEQAKEEADKLKDAGLVNEQQLKELKQRLNEKALAAAFRASGDTWHARRKLQYG",
    "Label value": "Not satisfied"
  },
  {
    "Binder": "BAX-CDP01 (BAX-targeting computationally designed protein 01) (designed binder, biotinylated for BLI (Avi tag). Limits not given; the soluble form lacking the transmembrane segment (183-200) is taken by convention) GADPKKVLDKARDQAENRVRELAQKLEELYKEARKLDLTQEERRKLEKRYKAAMEEAIKDIREAIRQAKQEADKLKKAGLVNSQQLKELKQRLNELAIAAALRAIGDAIEFRRKLQYG",
    "Label value": "Not satisfied"
  }
]

Exam item: decide whether the reported pKd for αBAK2 (designed binder, biotinylated for BLI (Avi tag). Limits not given; the soluble form lacking the transmembrane segment (183-200) is taken by convention) GADPKKVLDKADDQMENVVVTLKQELEELAKERRKLDLTQSEKIELKLRYIVAHLAAIGDIEEAIREAKEEADKLKKAGLVNSQQFAEFKRRLEELHKEADRKRRDYAEEFRNKLEYG is at least 6.
Not satisfied

Exam item: decide whether the reported pKd for BAK-CDP02 (BAK-targeting computationally designed protein 02 of 11) (designed binder, biotinylated for BLI (Avi tag). Limits not given; the soluble form lacking the transmembrane segment (183-200) is taken by convention) GADPKKVLDKAKDQAENVVRKLKQILEELYKEARKLDLTQDEKIELILRYIAAMLAAIGDILEAIRQAKEEADKLKKAGLVNSQQLDELKRRLEELRKEAARKARDYAEEFRNKLEYG is at least 6.
Satisfied

Exam item: decide whether the reported pKd for αBAX1 (designed binder, biotinylated for BLI (Avi tag). Limits not given; the soluble form lacking the transmembrane segment (183-200) is taken by convention) GADPKKVLDKARDQAENRVRELAQKLEELYKEARKLDLTQEERRKLEKRYKAAMEEAIKDIHEAIEQAKEEADKLKDAGLVNEQQLKELKQRLNELAIAAAFRASGDTIEFRRKLQYG is at least 6.
Not satisfied
